# Test system: KM12 colon
# EXPERIMENTAL_PROTOCOL: NCI tumour cell line growth inhibition, 48 h

COMPOUND_STRUCTURE	TARGET_SYSTEM	GI50
COc1ccc(Cn2c3c(c4c(O)cccc42)C(=O)c2ccccc2-3)cc1	KM12 colon	7.65 µM
COc1ccc(Cn2cc3c(c2-c2ccccc2)CCc2cncnc2-3)cc1	KM12 colon	3.57 µM
CN(C)CCN1C(=O)c2cccc3c(-c4ccc5ncn(C6CCCCC6)c5c4)ccc(c23)C1=O	KM12 colon	2.24 µM
CCOC(=O)c1cn2ncnc(Oc3ccc(NC(=O)NCCN(CC)CC)c(Cl)c3)c2c1C	KM12 colon	10.8 µM
C=C1C(=O)O[C@H]2[C@H]1CC/C(COC(=O)NCc1cccc(OC)c1)=C\CC[C@@]1(C)O[C@@H]21	KM12 colon	9.98 µM

###

# Test system: SK-OV-3 ovarian
# EXPERIMENTAL_PROTOCOL: NCI tumour cell line growth inhibition, 48 h
QUANTITY_NAME: TGI

MOLECULE	QUANTITY_NAME	REPORTED_RESULT
COc1ccc(CCNC(=S)/N=C\C2=C(O)c3ccccc3C2=O)cc1OC	TGI	> 100 µM
CS(=O)(=O)OC1CCN(C2(c3cccc(O)c3)CCCCC2)CC1	TGI	> 100 µM
[N-]=[N+]=NC(c1cn(C2CC(O)C(CO)O2)c(=O)[nH]c1=O)C(I)I (stereo not given)	TGI	> 100 µM
O=C(O)[C@H]1NC[C@@H]2ON=C(Br)[C@@H]21	TGI	> 100 µM
CC1(C)OCC(C2OC(=O)C(OCc3ccccc3)=C2OCc2ccccc2)O1 (stereo not given)	TGI	> 100 µM
COc1cc2c(cc1-c1c(C)noc1C)ncc1[nH]c(=O)n([C@H](C)c3ccccn3)c12	TGI	> 50.1 µM
O=C(O)C1Cc2ccccc2OC1=O (stereo not given)	TGI	> 100 µM
CC(C)=CCC[C@@H](C)C1=C(O)C(Nc2ccccc2F)=C(C)C(=O)C1=O	TGI	> 100 µM
COC(=O)Nc1nc2ccc(NS(=O)(=O)c3ccc(F)cc3)cc2[nH]1	TGI	> 100 µM
O=C(NN1C(=O)C(Cl)C1c1ccc([N+](=O)[O-])cc1)c1ccccc1O (stereo not given)	TGI	> 100 µM

###

Recorded measurements of TGI, one per entry
# System: OVCAR-4 ovarian
# EXPERIMENTAL_PROTOCOL: NCI tumour cell line growth inhibition, 48 h

COMPOUND	TGI
COC(=O)C(C(=O)C(=O)Nc1ccc(C)cc1C)c1nc2ccc([N+](=O)[O-])cc2[nH]c1=O (stereo unspecified)	> 100 µM
CC(C(O)c1ccccc1)[N+](=O)[O-] (stereo unspecified)	52.6 µM
O=C(O)C1(CC(CCCN2CCCCC2)c2ccccc2)CCCC1 (stereo unspecified)	> 100 µM
CN1CCN(CCCCNc2cc3c4ccccc4c(NCCCCN4CCN(C)CC4)cc3c3ccccc23)CC1	2.87 µM
NC(N)=N/N=C(/c1ccccc1)c1ccc(O)cc1O	> 100 µM
CCc1c(-c2coc(CC/C(C)=C/c3ccccc3)n2)oc(OC)c(C)c1=O	> 55.5 µM
CC(C)(C)[Si](Nc1ccccc1)(c1ccccc1)c1ccccc1	27.1 µM
Nc1ccc(S(=O)(=O)c2ccc(N=[N+]([O-])c3ccc(S(=O)(=O)c4ccc(N)cc4)cc3)cc2)cc1	> 62.6 µM
CC1(C)N=C(/C(C#N)=[N+](/[O-])C(=O)c2ccccc2)C(C)(C)N1O	> 100 µM
S=C1NC2=C(COC/C2=C\c2ccccc2Cl)C(c2ccccc2Cl)N1 (stereo unspecified)	> 100 µM
COc1ccc2c(c1)Cc1c-2[nH]c2cc3c(cc2c1=O)OCO3	> 100 µM
Cc1noc(C)c1N=Nc1ccc2nonc2c1N	> 100 µM
CCOC(=S)SC/C(=N\OC(C)(C)OC)c1ccccc1	> 100 µM
CC(Nc1cc(=O)n(C)c(=O)[nH]1)c1ccccc1 (stereo unspecified)	> 100 µM
CCOC(=O)c1ccc2c(=O)n3c(C(=O)OCC)ccc3c(=O)n12	> 100 µM
CCOc1ccc(C(c2c(O)c3ccccc3oc2=O)c2c(O)c3ccccc3oc2=O)cc1	> 100 µM
CN(C)C(=O)CO/N=C1/C(c2c(O)[nH]c3ccccc23)=Nc2ccccc21	> 100 µM
O=C(/C=C\c1ccc(OCCCCCC[P+](c2ccccc2)(c2ccccc2)c2ccccc2)cc1)c1ccc2c(c1)OCCO2	3.42 µM
CCN1CCC(O)(c2ccc(Cl)c(Cl)c2)C(C(=O)c2ccc(Cl)c(Cl)c2)C1 (stereo unspecified)	32.6 µM
CC1(C)CC(O)CCCCCCOc2c(CN)cccc2NC(=O)c2nc(cnc2N)-c2ccc(cc2)S1(=O)=O (stereo unspecified)	3.43 µM
CSc1ccc(C(=O)/C=C/c2ccc(F)cc2)cc1	> 100 µM
